# ASSAY_EXPLANATION: qHTS assay to identify small molecule antagonists of the glucocorticoid receptor (GR) signaling pathway - cell viability counter screen (AID 720693); further: nearly all actives have a fitted effect of over 55% in size
# EXPERIMENTAL_SETUP: GR-bla HeLa viability, CellTiter-Glo luminescence, 18 h, with 5 nM dexamethasone present; series mostly up to 58.5 µM
Results filed as inconclusive are left out. Activity calls are given as the source filed them. The call rests on the fitted dose curve; in most records, active means well fitted cell-killing curve with a large enough effect in the repeat runs; inconclusive means weak or mixed curves, or effect the other way; inactive means no such curve, though single readings can be large or run the other way.
ENDPOINT_LABEL: outcome

Before answering, review these 4 worked examples.
| COMPOUND | outcome |
| --- | --- |
| CCNc1nc(NC(C)(C)C)nc(SC)n1 | inactive |
| COc1ccc2c3c1O[C@H]1[C@@H](O)C=C[C@H]4[C@@H](C2)N(C)CC[C@@]341 | inactive |
| CCNc1nc(NC(C)C)nc(SC)n1 | inactive |
| Cc1ccccc1O | inactive |

Return reported outcome; argument: CN(N=O)c1ccccc1
inactive

Ok, now O=C1CCCN1
inactive

Let us now turn to CC(C)(C)C(O)(CCc1ccc(Cl)cc1)Cn1cncn1 (centres undefined)
inactive

What do you have for Cc1ccc(N)cc1N ?
inactive

What about this compound? O=S(=O)(c1ccc(Cl)cc1)c1cc(Cl)c(Cl)cc1Cl
inactive
